target.or.system: DRD4 (D4.4 variant) (Homo sapiens, UniProt P21917)
Sequence (P21917 1-419): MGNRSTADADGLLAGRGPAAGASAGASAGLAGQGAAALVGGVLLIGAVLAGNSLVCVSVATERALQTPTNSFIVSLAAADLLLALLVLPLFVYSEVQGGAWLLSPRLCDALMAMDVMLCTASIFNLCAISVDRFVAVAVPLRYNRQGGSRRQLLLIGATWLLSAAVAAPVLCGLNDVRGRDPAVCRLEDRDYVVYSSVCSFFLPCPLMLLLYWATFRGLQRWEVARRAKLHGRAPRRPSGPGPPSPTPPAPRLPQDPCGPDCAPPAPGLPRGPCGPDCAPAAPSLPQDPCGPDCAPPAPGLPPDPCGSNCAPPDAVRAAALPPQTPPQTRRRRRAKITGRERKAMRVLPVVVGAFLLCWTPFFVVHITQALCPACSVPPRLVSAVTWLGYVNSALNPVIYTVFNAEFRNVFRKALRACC
test.summary: β-arrestin2 recruitment (Tango)
Assay type: cell-based
pEC50: −log10 of the molar value.
recorded.metric: pEC50

### Prompt Param readout = pEC50; param system = DRD4 (D4.4 variant) (Homo sapiens, UniProt P21917); param query = CC(CCc1ccccc1[N+](=O)[O-])NCC1(O)CCCCC1 (stereo not shown) [O7LE6] ; response: value
### Response < 5.00
